biological target: PfCSP full length (Plasmodium falciparum (isolate NF54), UniProt P19597); test: ELISA AUC
Sequence (P19597 20-375): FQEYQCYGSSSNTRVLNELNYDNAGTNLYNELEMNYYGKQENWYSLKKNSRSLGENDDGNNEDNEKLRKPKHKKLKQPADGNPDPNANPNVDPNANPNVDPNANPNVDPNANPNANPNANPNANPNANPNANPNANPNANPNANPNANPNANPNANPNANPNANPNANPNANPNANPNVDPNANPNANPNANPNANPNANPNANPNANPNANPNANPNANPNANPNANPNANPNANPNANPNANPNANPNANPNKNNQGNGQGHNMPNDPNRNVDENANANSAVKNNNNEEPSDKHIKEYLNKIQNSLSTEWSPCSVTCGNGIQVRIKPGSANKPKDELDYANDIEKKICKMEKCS
Consider the following binders; for each one, report its binding score.
Respond numerically, and do not add a unit to the figure.

Name the recorded binding score for CL-510416 (antibody, V domains shown, peptides N-terminally acetylated and C-terminally amidated) VH: QVQLVESGGGVVQPGRSLRLSCEASGFTFSNYGMHWVRQGPGKGLEWVALMWYDGSNKYYSDSVKGRFTISRDNSKSTLYLQMNSLRAEDTAVYYCARPITGNTHSKYTMDVWGQGTTVTVSS VL: DIQMTQSPSTLSASVGDRVTITCRASQSISSWLAWYQQKPGKAPKLLIYKASTLESGVPSRFSGSGSGTEFTLTISSLQPDDFATYFCQQYNSYWTFGQGTKVEIK .
2.57

Now the binder CL-509326 (antibody, V domains shown, peptides N-terminally acetylated and C-terminally amidated) VH: QVYLVESGEGVVQPGRSLRLSCAASGFTFSNYGMHWVRQAPGKGLEWVAVIWYNGNNKFYADSVKGRFTISRDNSKNTLFLQMNSLRAEDTAVYFCARSGYSRSSYFDYWGQGTLVTVSS VL: QSVLTQPPSVSGAPGQRVTISCTGSSSNIGAVYDVHWYQQLPGTAPKLLIYGNTNRPSGVPDRFSGSQSGTSASLAITGLQAEDEADYYCQSYDSSLSGSVFGGGTKLTVL
2.19

What about CL-447563 (antibody, V domains shown, peptides N-terminally acetylated and C-terminally amidated) VH: QVQLVASGGGVVQPGRSLRLSCAASGFTFSNYGMHWVRQAPGKGLEWVAIIWYDGSKKYYSDSVKGRFTISRDNSKNTLYLQMNSLRAEDTAVYYCARAYGSGSYSDDYYGMDVWGQGTTVTVSS VL: DIQMTQSPSTLSASVGDRVTITCRASQSISTWLAWYQQKPGKAPKLLIYKASNLESGVPSRFSGSGSGTEFTLTISSLQPDDFATYYCQQYYSYWTFGQGTKVEIK ?
2.5
